Recorded PBM binding z-score, one value per entry.
System: FXR:RXRa (NR concentration 270 nM, RXRa partner concentration 90 nM)
Assay: PBM binding z-score (relative to random genomic background probes); higher = stronger binding; sequences stand for … in GC…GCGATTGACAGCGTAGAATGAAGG

Query: Record request: PBM binding z-score value, item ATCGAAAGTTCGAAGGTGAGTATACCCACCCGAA
Result: 0.822

Others:
Query: Record request: PBM binding z-score value, item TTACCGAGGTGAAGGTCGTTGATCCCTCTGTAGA
Result: 2.23

----------
Tested on: PPARg:RXRa 90nM:30nM, anti-RXR (NR concentration 90 nM, RXRa partner concentration 30 nM)
Assay: PBM binding z-score (relative to random genomic background probes); higher = stronger binding; sequences stand for … in GC…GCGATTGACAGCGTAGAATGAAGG
PARAMETER: PBM binding z-score
// no unit, no text: just the number

Examples from the recorded data:
Query: Record request: PBM binding z-score value, item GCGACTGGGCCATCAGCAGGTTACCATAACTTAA
Result: -0.265

Query: Record request: PBM binding z-score value, item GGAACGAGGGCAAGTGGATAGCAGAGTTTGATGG
Result: 0.598

Query: Record request: PBM binding z-score value, item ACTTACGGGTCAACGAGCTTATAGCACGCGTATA
Result: 3.6

Others:
Query: Record request: PBM binding z-score value, item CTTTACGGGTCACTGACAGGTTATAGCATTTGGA
Result: 4.01

Query: Record request: PBM binding z-score value, item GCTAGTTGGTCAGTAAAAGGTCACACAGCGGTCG
Result: 4.37

Query: Record request: PBM binding z-score value, item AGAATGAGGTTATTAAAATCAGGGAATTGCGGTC
Result: 0.902

Query: Record request: PBM binding z-score value, item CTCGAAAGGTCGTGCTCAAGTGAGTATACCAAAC
Result: 2.35

Query: Record request: PBM binding z-score value, item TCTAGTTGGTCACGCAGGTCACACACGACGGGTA
Result: 2.92

Query: Record request: PBM binding z-score value, item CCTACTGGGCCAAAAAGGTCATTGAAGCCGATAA
Result: 3.47

----------
Recorded PBM binding z-score, one value per entry.
System: PXR:RXRa (NR concentration 270 nM, RXRa partner concentration 90 nM)
Experiment: PBM binding z-score (relative to random genomic background probes); higher = stronger binding; sequences stand for … in GC…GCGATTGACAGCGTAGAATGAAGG
// no unit, no text: just the number

Examples from the recorded data:
Query: Record request: PBM binding z-score value, item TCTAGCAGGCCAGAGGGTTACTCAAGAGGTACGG
Result: -0.175

Query: Record request: PBM binding z-score value, item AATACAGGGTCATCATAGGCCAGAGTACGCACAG
Result: 4.42

Query: Record request: PBM binding z-score value, item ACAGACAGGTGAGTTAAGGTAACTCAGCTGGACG
Result: 0.151

Others:
Query: Record request: PBM binding z-score value, item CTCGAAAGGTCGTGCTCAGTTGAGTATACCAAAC
Result: 3.56

Query: Record request: PBM binding z-score value, item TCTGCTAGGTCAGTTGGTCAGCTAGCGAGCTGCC
Result: 0.114

Query: Record request: PBM binding z-score value, item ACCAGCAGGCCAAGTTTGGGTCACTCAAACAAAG
Result: 0.747

----------
Recorded PBM binding z-score, one value per entry.
Test system: THRa homodimer (NR concentration 90 nM)
Test: PBM binding z-score (relative to random genomic background probes); higher = stronger binding; sequences stand for … in GC…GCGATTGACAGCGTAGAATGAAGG
// no unit, no text: just the number

Examples from the recorded data:
Query: Record request: PBM binding z-score value, item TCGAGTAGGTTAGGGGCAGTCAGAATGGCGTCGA
Result: 0.229

Query: Record request: PBM binding z-score value, item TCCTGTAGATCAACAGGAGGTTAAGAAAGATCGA
Result: -0.958

Query: Record request: PBM binding z-score value, item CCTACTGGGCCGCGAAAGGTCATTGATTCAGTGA
Result: 0.433

Others:
Query: Record request: PBM binding z-score value, item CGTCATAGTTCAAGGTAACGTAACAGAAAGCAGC
Result: 1.16

Query: Record request: PBM binding z-score value, item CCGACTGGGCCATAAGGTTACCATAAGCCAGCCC
Result: 1.52

Query: Record request: PBM binding z-score value, item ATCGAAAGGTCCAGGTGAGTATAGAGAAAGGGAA
Result: 0.905

Query: Record request: PBM binding z-score value, item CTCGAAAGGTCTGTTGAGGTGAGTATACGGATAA
Result: 1.12

Query: Record request: PBM binding z-score value, item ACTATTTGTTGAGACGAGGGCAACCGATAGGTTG
Result: 0.711

Query: Record request: PBM binding z-score value, item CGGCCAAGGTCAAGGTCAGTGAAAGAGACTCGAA
Result: 2.89

Query: Record request: PBM binding z-score value, item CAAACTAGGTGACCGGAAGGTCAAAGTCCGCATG
Result: 1.86

Query: Record request: PBM binding z-score value, item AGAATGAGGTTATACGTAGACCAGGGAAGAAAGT
Result: 0.296

Query: Record request: PBM binding z-score value, item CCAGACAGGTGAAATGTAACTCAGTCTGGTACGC
Result: -0.307

Query: Record request: PBM binding z-score value, item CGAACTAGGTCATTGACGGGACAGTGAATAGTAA
Result: 0.664

Query: Record request: PBM binding z-score value, item AGAATGAGGTTACCAAAGCTCAGGGAAACGCTTG
Result: 0.864

Query: Record request: PBM binding z-score value, item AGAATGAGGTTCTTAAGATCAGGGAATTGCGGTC
Result: 0.000852

Query: Record request: PBM binding z-score value, item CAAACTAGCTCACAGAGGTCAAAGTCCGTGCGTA
Result: 1.27

----------
Test system: FXR:RXRa (NR concentration 270 nM, RXRa partner concentration 90 nM)
Assay: PBM binding z-score (relative to random genomic background probes); higher = stronger binding; sequences stand for … in GC…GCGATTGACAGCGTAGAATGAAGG
# label = y if PBM binding z-score >= 0.8 else n

Query: Quick check: does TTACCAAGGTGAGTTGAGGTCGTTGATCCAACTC have PBM binding z-score greater than or equal to 0.8?
Result: y

Others:
Query: Quick check: does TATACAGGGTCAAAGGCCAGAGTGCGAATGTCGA have PBM binding z-score greater than or equal to 0.8?
Result: y

Query: Quick check: does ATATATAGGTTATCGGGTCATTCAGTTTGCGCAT have PBM binding z-score greater than or equal to 0.8?
Result: y

Query: Quick check: does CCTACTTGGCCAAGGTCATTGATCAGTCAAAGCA have PBM binding z-score greater than or equal to 0.8?
Result: y

----------
Test system: PXR homodimer (NR concentration 270 nM)
Assay: PBM binding z-score (relative to random genomic background probes); higher = stronger binding; sequences stand for … in GC…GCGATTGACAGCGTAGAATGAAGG
Recorded PBM binding z-score, one value per entry.
// no unit, no text: just the number

Examples from the recorded data:
Query: Record request: PBM binding z-score value, item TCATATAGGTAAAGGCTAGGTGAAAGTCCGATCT
Result: 0.058

Query: Record request: PBM binding z-score value, item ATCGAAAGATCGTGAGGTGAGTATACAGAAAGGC
Result: -0.403

Query: Record request: PBM binding z-score value, item ATCTCTAGGTAAGACTCAGTTCAGTGACGAACGC
Result: 2.01

Query: Record request: PBM binding z-score value, item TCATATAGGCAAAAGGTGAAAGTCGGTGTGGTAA
Result: 0.0545

Others:
Query: Record request: PBM binding z-score value, item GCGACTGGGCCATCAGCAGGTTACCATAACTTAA
Result: -0.71

Query: Record request: PBM binding z-score value, item TCTATTAGTTGATGGGCAACCGACGAGTCCGTTT
Result: 0.849

----------
Tested on: LXRa homodimer (NR concentration 270 nM)
Assay: PBM binding z-score (relative to random genomic background probes); higher = stronger binding; sequences stand for … in GC…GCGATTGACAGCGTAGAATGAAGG
PARAMETER: PBM binding z-score
// no unit, no text: just the number

Examples from the recorded data:
Query: Record request: PBM binding z-score value, item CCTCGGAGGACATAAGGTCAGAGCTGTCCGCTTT
Result: 0.959

Query: Record request: PBM binding z-score value, item CATACTGGGCCAAAGGTCATTGATTCCAATGCTC
Result: 4.2

Query: Record request: PBM binding z-score value, item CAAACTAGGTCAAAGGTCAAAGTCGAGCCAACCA
Result: 6.02

Query: Record request: PBM binding z-score value, item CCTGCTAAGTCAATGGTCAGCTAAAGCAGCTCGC
Result: -0.545

Query: Record request: PBM binding z-score value, item TGAATGAGGTTATAAGATCAGGTAACGTTGCAAA
Result: -0.261

Query: Record request: PBM binding z-score value, item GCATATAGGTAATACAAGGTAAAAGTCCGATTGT
Result: -0.476

Query: Record request: PBM binding z-score value, item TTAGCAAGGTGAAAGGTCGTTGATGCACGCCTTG
Result: -0.037

Query: Record request: PBM binding z-score value, item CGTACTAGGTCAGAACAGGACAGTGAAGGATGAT
Result: 0.203

Others:
Query: Record request: PBM binding z-score value, item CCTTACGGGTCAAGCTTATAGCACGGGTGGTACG
Result: -0.087
